Entries and their Activity
Tested on: Epilachna varivestis
Assay: Insecticidal activity against mexican bean beetle third instar larvae at 6 ug/cm2 applied on upper surface of circular leaf disk after 6 days
Assay type: functional

| MOLECULE | Activity |
| --- | --- |
| C=C1[C@@H]([C@@]2(C)[C@@H](OC(C)=O)CC(=O)O[C@](C)(COC(C)=O)[C@@H]2C(=O)OC)[C@@H](OC=O)[C@H](OC(=O)[C@H](O)[C@H](C)CC)[C@@]2(C)[C@H](c3ccoc3)CC(=O)[C@]12O | 30% |
| C=C1[C@@H]([C@@]2(C)C=CC(=O)O[C@]3(C)COC(=O)C[C@H]23)[C@@H](OC=O)[C@H](OC(=O)C(O)C(C)CC)[C@@]2(C)[C@@H](c3ccoc3)C[C@H](OC(C)=O)[C@]12O (some centres undefined) | 0% |
| C=C1[C@H]([C@@]2(C)[C@@H](OC(C)=O)CC(=O)O[C@]3(C)COC(=O)C[C@H]23)[C@@H](OC=O)[C@H](OC(=O)CC(C)C)[C@@]2(C)[C@@H](c3ccoc3)CC(=O)[C@@]12O | 0% |
| C/C=C(\C)C(=O)O[C@H]1C[C@@H](OC(C)=O)[C@@]2(C(=O)OC)CO[C@H]3[C@@H](O)[C@@](C)([C@]45O[C@@]4(C)[C@@H]4C[C@H]5O[C@@H]5OC=C[C@@]54O)[C@H]4[C@]1(CO[C@]4(O)C(=O)OC)[C@@H]32 | 90% |

* * *

Entries and their Activity
Tested on: Heliothis virescens
Test: Insecticidal activity against tobacco budworm third instar larvae at 19.8 ug/cm2 applied on upper surface of circular leaf disk after 6 days
Type: functional

| COMPOUND | ASSAYED_TARGET | Activity |
| --- | --- | --- |
| C=C1[C@@H]([C@@]2(C)C=CC(=O)O[C@]3(C)COC(=O)C[C@H]23)[C@@H](OC=O)[C@H](OC(=O)C(O)C(C)CC)[C@@]2(C)[C@@H](c3ccoc3)C[C@H](OC(C)=O)[C@]12O (some centres undefined) | Heliothis virescens | 60% |
| C=C1[C@H]([C@@]2(C)[C@@H](OC(C)=O)CC(=O)O[C@]3(C)COC(=O)C[C@H]23)[C@@H](OC=O)[C@H](OC(=O)CC(C)C)[C@@]2(C)[C@@H](c3ccoc3)CC(=O)[C@@]12O | Heliothis virescens | 30% |
| C=C1[C@@H]([C@@]2(C)[C@@H](OC(C)=O)CC(=O)O[C@](C)(COC(C)=O)[C@@H]2C(=O)OC)[C@@H](OC=O)[C@H](OC(=O)[C@H](O)[C@H](C)CC)[C@@]2(C)[C@H](c3ccoc3)CC(=O)[C@]12O | Heliothis virescens | 60% |
| C/C=C(\C)C(=O)O[C@H]1C[C@@H](OC(C)=O)[C@@]2(C(=O)OC)CO[C@H]3[C@@H](O)[C@@](C)([C@]45O[C@@]4(C)[C@@H]4C[C@H]5O[C@@H]5OC=C[C@@]54O)[C@H]4[C@]1(CO[C@]4(O)C(=O)OC)[C@@H]32 | Heliothis virescens | 60% |

* * *

Test system: Spodoptera eridania
Assay: Insecticidal activity against southern armyworm third instar larvae at 6 ug/cm2 applied on upper surface of circular leaf disk after 6 days
Assay type: functional

| COMPOUND | ASSAYED_TARGET | OUTPUT_UNIT | Activity |
| --- | --- | --- | --- |
| C/C=C(\C)C(=O)O[C@H]1C[C@@H](OC(C)=O)[C@@]2(C(=O)OC)CO[C@H]3[C@@H](O)[C@@](C)([C@]45O[C@@]4(C)[C@@H]4C[C@H]5O[C@@H]5OC=C[C@@]54O)[C@H]4[C@]1(CO[C@]4(O)C(=O)OC)[C@@H]32 [AZADIRACHTIN A] | Spodoptera eridania | % | 60 |
| C=C1[C@@H]([C@@]2(C)C=CC(=O)O[C@]3(C)COC(=O)C[C@H]23)[C@@H](OC=O)[C@H](OC(=O)C(O)C(C)CC)[C@@]2(C)[C@@H](c3ccoc3)C[C@H](OC(C)=O)[C@]12O (some centres undefined) [ROHITIUKA 7] | Spodoptera eridania | % | 0 |
| C=C1[C@@H]([C@@]2(C)[C@@H](OC(C)=O)CC(=O)O[C@](C)(COC(C)=O)[C@@H]2C(=O)OC)[C@@H](OC=O)[C@H](OC(=O)[C@H](O)[C@H](C)CC)[C@@]2(C)[C@H](c3ccoc3)CC(=O)[C@]12O [PRIEURIANIN] | Spodoptera eridania | % | 0 |
| C=C1[C@H]([C@@]2(C)[C@@H](OC(C)=O)CC(=O)O[C@]3(C)COC(=O)C[C@H]23)[C@@H](OC=O)[C@H](OC(=O)CC(C)C)[C@@]2(C)[C@@H](c3ccoc3)CC(=O)[C@@]12O [ROHITIUKIN] | Spodoptera eridania | % | 0 |

* * *

Tested on: Spodoptera eridania
Test: Insecticidal activity against southern armyworm third instar larvae at 6 ug/cm2 applied on upper surface of circular leaf disk after 2 days
Assay type: functional

| COMPOUND | Activity |
| --- | --- |
| C=C1[C@@H]([C@@]2(C)C=CC(=O)O[C@]3(C)COC(=O)C[C@H]23)[C@@H](OC=O)[C@H](OC(=O)C(O)C(C)CC)[C@@]2(C)[C@@H](c3ccoc3)C[C@H](OC(C)=O)[C@]12O (some centres undefined) | 0% |
| C=C1[C@@H]([C@@]2(C)[C@@H](OC(C)=O)CC(=O)O[C@](C)(COC(C)=O)[C@@H]2C(=O)OC)[C@@H](OC=O)[C@H](OC(=O)[C@H](O)[C@H](C)CC)[C@@]2(C)[C@H](c3ccoc3)CC(=O)[C@]12O | 0% |
| C/C=C(\C)C(=O)O[C@H]1C[C@@H](OC(C)=O)[C@@]2(C(=O)OC)CO[C@H]3[C@@H](O)[C@@](C)([C@]45O[C@@]4(C)[C@@H]4C[C@H]5O[C@@H]5OC=C[C@@]54O)[C@H]4[C@]1(CO[C@]4(O)C(=O)OC)[C@@H]32 | 60% |
| C=C1[C@H]([C@@]2(C)[C@@H](OC(C)=O)CC(=O)O[C@]3(C)COC(=O)C[C@H]23)[C@@H](OC=O)[C@H](OC(=O)CC(C)C)[C@@]2(C)[C@@H](c3ccoc3)CC(=O)[C@@]12O | 0% |

meta.source: ChEMBL document CHEMBL1151662
